Attribution: patent US12497460B2

- Tested On: T1, His9-hMSR1 (human MSR1 extracellular domain) (Homo sapiens, UniProt P21757)
- T1 construct: human MSR1 extracellular domain expressed with a N-terminal nonahistidine tag; His9 (nonahistidine) (N); purchased R&D Systems 2708-MS
- T1 sequence (P21757 77-451 limits assumed): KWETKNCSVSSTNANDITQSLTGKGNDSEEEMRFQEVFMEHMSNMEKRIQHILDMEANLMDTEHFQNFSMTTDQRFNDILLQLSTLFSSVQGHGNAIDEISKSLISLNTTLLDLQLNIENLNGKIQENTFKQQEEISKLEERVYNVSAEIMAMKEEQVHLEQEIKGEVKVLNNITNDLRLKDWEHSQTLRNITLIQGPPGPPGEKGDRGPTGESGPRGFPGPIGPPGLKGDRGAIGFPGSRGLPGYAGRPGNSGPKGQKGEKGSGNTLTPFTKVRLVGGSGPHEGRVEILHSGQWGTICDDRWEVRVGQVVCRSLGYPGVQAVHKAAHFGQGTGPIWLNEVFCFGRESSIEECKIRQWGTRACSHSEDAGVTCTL
- Method Summary: Biacore surface plasmon resonance binding kinetics of anti-MSR1 mAbs, antibody-capture format
- Measurement Context: 37° C.; analyte His9-hMSR1; dissociative half-life; NB = no binding observed
Reported values of t½ for individual entries
Could you give me the number in h? Just the number is fine.

[
  {
    "Molecule": "H1H21227N: \"anti-MSR1 antibodies ... (21227N, 21231N, 21234N) were produced with the original human Fcγ portion\"; \"H1H\" = human IgG1 Fc (antibody, V domains shown, human IgG1 Fc, \"anti-MSR1 antibodies ; (21227N, 21231N, 21234N) were produced with the original human Fcγ portion\"; \"H1H\" = human IgG1 Fc) VH: QVQLVQSGAEVKKPGASVKVSCKVSGYTLTELSIHWVRQVPGKGLEWMGGFDPEEGETIFAQEFRDRVTLTEDTSPDTAYMELSSLKSEDAAVYYCTTPRYCNNGICYDYWGQGTLVTVSS VL: DIQMTQSPSSLSASVGDRVTITCRASQSISNYLNWYQQKPGKAPKLLIYTASSLQSGVPSRFSGSGSGTDFTLTISSLQTEDFATYYCQQSYSNFPITFGQGTRLEIKR",
    "t½, h": 10.4
  }
]

Next item in the queue.
Reported t½ ( H1H21231N: "anti-MSR1 antibodies ... (21227N, 21231N, 21234N) were produced with the original human Fcγ portion"; "H1H" = human IgG1 Fc (antibody, V domains shown, human IgG1 Fc, "anti-MSR1 antibodies ; (21227N, 21231N, 21234N) were produced with the original human Fcγ portion"; "H1H" = human IgG1 Fc) VH: EVQLVESGGGLVQPGGSLRLSCAASGFTFSDHYMDWVRQAPGKGLEWVGRTRNKANSHTTEYTASVTGRFTISRDDSRNSLYLQMNSLKTEDTAVYYCVRAGIIGTLFDYWGQGTLVTVSS VL: DIQMTQFPSSLSASVGDRVTITCRASQSISSFLNWFQQKPGKAPKFLIYAASSLQSGVPSRFSGSGSGTDFTLTISSLQPEDFATYYCQQSYSSPPITFGQGTRLEIKR ) = 2.12
